# Test system: P388 leukemia ip, CD2F1 mice, survival T/C
# assay_text: NCI In Vivo Anticancer Drug Screen. Data for tumor model P388 Leukemia (intraperitoneal) in CD2F1 (CDF1) mice
# conditions: endpoint: median survival time; dose: 60.0 mg/kg/injection; schedule: Q01DX005 (ip); vehicle: saline with Tween-80; higher = longer survival
Toxic doses and inconclusive results are not listed.
quantity_measured: T/C

Lookup: // output T/C; input `CC1(C)CC(=O)C2=C(C1)NC(=O)CC2` ; system P388 leukemia ip, CD2F1 mice, survival T/C
Found: 101 % of control

Lookup: Provide the reported T/C (system: P388 leukemia ip, CD2F1 mice, survival T/C) for COc1ccc(N2C(=O)C(C)SC23C(=O)Nc2ccccc23)cc1 (configuration not stated)
Found: 99 % of control

Lookup: Under P388 leukemia ip, CD2F1 mice, survival T/C, report T/C for `CC1=C(C(=O)CC(=O)C(=O)Nc2ccc(Cl)cc2Cl)Sc2ccccc2N1`
Found: 100 % of control

Lookup: # lookup: P388 leukemia ip, CD2F1 mice, survival T/C T/C, key = `NS(=O)(=O)c1ccc(NC(=O)c2cccnc2Nc2cccc(Cl)c2)cc1`
Found: 103 % of control

Lookup: Give the observed T/C of `O=c1nc(Oc2ccc(Cl)cc2Cl)oc2cc(Cl)ccc12` for P388 leukemia ip, CD2F1 mice, survival T/C.
Found: 94 % of control

Lookup: Identify measured T/C obtained with P388 leukemia ip, CD2F1 mice, survival T/C for NNC(=O)C1CC2c3ccccc3C1c1ccccc12 (configuration not stated) .
Found: 101 % of control

Lookup: Send back P388 leukemia ip, CD2F1 mice, survival T/C T/C of `Cc1nn(-c2ccccc2)nc1C(=O)Nc1ccc2[nH]ncc2c1` only.
Found: 91 % of control
